# Test system: MDA-MB-231 breast
# assay.procedure: NCI-60 one-dose screen, 48 h (100 = growth as untreated, 0 = no growth, -100 = all killed)
# condition.description: 10 µM unless noted
This is part of a sample that, as a whole, favours compounds with a hit. Of some 83,000 tested, about 20% had one in any assay.
Listing of recorded growth by entry.
Express the result in % but write the number alone.

Below, each entry is followed by its recorded growth result.
- compound.structure.string: "Cn1c2ccccc2c2c3c(c4c5cccnc5[nH]c4c21)C(=O)N(O)C3=O"
  growth / %: 68.8
- compound.structure.string: "O=C(N/N=C\\c1ccccc1O)C1CC1"
  growth / %: 103
- compound.structure.string: "OCC(CO)(CCl)CCl"
  growth / %: 94.8

Please look at the following compound next.
Input line: Find the recorded growth belonging to COc1cc(/C=C/c2cc(/C=C/c3ccc(O)c(OC)c3)n(-c3ccccc3)c(=O)n2)ccc1O and report it.
Output line: 61.4
